The origin of these recorded values is the supplement of paper PMC3150612.

Please provide measured olfactory response index for the entries that follow.
test system: Drosophila melanogaster; assay: olfactory response index (dipstick assay) (fraction of flies (RI; 1 aversion, 0.5 indifferent, 0 attraction)); higher = stronger aversion to the odorant; settings: genotype (tubulin-GAL4 x UAS-RNAi line; control = progenitor): obp 56f; odorant concentration: 1% v/v; female

Query: Which measured olfactory response index value corresponds to CCOC(C)=O [ethyl acetate] ?
Response: 0.559

Query: And the next one, CC(=O)OCCC(C)C [isoamyl acetate] ?
Response: 0.497

Query: And the next one, CC(=O)c1ccccc1 ?
Response: 0.801

Query: And the next one, COC(=O)c1ccccc1O [methyl salicylate] ?
Response: 0.295

Query: And the next one, CCc1cnccn1 ?
Response: 0.568

Query: And the next one, CCC/C=C/C=O [(E)-2-hexenal] ?
Response: 0.727

Query: And the next one, CC(C)=CCCC(C)=CC=O (mixture of isomers) ?
Response: 0.639

Query: And the next one, Cc1cnccn1 ?
Response: 0.674

Query: And the next one, CC(C)=CCC/C(C)=C/CO ?
Response: 0.468

Query: And the next one, CCC=O ?
Response: 0.333

Query: And the next one, C=C(C)[C@H]1CC=C(C)C(=O)C1 [(S)-carvone] ?
Response: 0.676

Query: And the next one, OCCc1ccccc1 ?
Response: 0.414
